assayTarget: Beta-lactamase (Proteus mirabilis, UniProt P30897)
Sequence (P30897 whole entry): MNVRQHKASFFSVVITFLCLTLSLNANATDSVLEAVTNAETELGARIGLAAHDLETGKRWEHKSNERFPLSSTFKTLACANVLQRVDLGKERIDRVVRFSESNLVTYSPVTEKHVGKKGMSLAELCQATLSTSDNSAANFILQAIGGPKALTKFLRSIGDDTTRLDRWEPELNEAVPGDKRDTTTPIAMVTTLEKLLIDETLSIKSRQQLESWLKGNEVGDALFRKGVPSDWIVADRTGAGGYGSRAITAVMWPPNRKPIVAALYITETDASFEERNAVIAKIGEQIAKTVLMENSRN
protocolDescription: Inhibition of Proteus mirabilis C889 beta-lactamase assessed as inhibition of nitrocefin hydrolysis preincubated for 5 mins by microtiter plate assay
assayMetric: IC50 (µM)
Give bare numbers, in µM.

Look up and report IC50, with Beta-lactamase (Proteus mirabilis, UniProt P30897) as system, for `CC/C=C\C/C=C\C/C=C\CCCCCCCc1cccc(O)c1C(=O)O`
300

Attribution: ChEMBL document CHEMBL1149069
